The entries below are paired with their reported CC50 at 48 h.
# EXPERIMENT NOTES: in vitro
# Design: species or system HCT116, SH-SY5Y, U2OS
# MEASUREMENT SETUP: human, rpe-1 cells
MEASURED QUANTITY: CC50 at 48 h

SMILES	RECORDED RESULT
Cc1cccc(OCC(=O)Nc2ccc3oc(-c4cccnc4)nc3c2)c1C	43 µM
Cc1ccc(NC(=O)Nc2ccc(Cc3ccncc3)cc2)cc1C	> 50 µM
O=C(Nc1ccc2oc(-c3cccnc3)nc2c1)c1ncoc1-c1ccccc1Cl	> 50 µM
O=C(NC[C@@H]1Cc2cc(-c3cncnc3)ccc2O1)c1scc2c1CCCC2	> 50 µM
N#Cc1ccc2ncnc(NCCc3ccccc3)c2c1	41 µM
O=C(NC[C@H]1CC(=O)N(c2ccc3c(c2)OCO3)C1)Nc1cccc(C(F)(F)F)c1	> 50 µM
O=C(Nc1ccc(Cc2ccncc2)cc1)Nc1cccc2ccccc12	10 µM
O=C(CSc1ccc(-c2cccnc2)nn1)Nc1cccc(C(F)(F)F)c1	> 50 µM
